Record form. Attribute: MIC. Fill in for each entry.
System: Pseudomonas aeruginosa
test-description: Antimicrobial activity against Pseudomonas aeruginosa ATCC 9027 after 18 to 24 hrs by liquid broth method
Type: functional
Give bare numbers, in µg/mL.

{"substance-smiles": "O=C(CSc1nnc(-c2ccc(S(=O)(=O)c3ccc(Br)cc3)cc2)[nH]1)c1ccc(Br)cc1", "target-or-system": "Pseudomonas aeruginosa", "reported-result": 128}
{"substance-smiles": "O=S(=O)(c1ccc(Br)cc1)c1ccc(-c2nc3scc(-c4ccc(Br)cc4)n3n2)cc1", "target-or-system": "Pseudomonas aeruginosa", "reported-result": 128}

Please look at the following compound next.
q: Reported MIC, compound O=C(CSc1nnc(-c2ccc(S(=O)(=O)c3ccc(Cl)cc3)cc2)[nH]1)c1ccc(Br)cc1 : ____
a: 64

----------
Consider the following compounds; for each one, report its MIC.
System: Enterococcus faecalis
test-description: Antimicrobial activity against Enterococcus faecalis ATCC 19433 after 18 to 24 hrs by liquid broth method
Format: functional

{"substance-smiles": "O=S(=O)(c1ccc(Cl)cc1)c1ccc(-c2nnc(S)[nH]2)cc1", "experimental-readout": "MIC", "reported-result": "> 1020 µg/mL"}
{"substance-smiles": "CN(C)[C@@H]1C(O)=C(C(N)=O)C(=O)[C@@]2(O)C(O)=C3C(=O)c4c(O)cccc4[C@@](C)(O)[C@H]3C[C@@H]12", "experimental-readout": "MIC", "reported-result": "32 µg/mL"}
{"substance-smiles": "O=S(=O)(c1ccccc1)c1ccc(-c2nnc(S)[nH]2)cc1", "experimental-readout": "MIC", "reported-result": "> 1020 µg/mL"}

Continue with the next compound.
q: Bench note: what MIC did O=C(CSc1nnc(-c2ccc(S(=O)(=O)c3ccccc3)cc2)[nH]1)c1ccc(Br)cc1 show?
a: 512 µg/mL

----------
System: Staphylococcus aureus
test-description: Antimicrobial activity against Staphylococcus aureus ATCC 12600 after 18 to 24 hrs by liquid broth method
Type: functional
experimental-readout: MIC (mg/L)
Answers are plain numbers, in mg/L.

Study these solved cases before continuing.
{"substance-smiles": "O=S(=O)(c1ccc(Br)cc1)c1ccc(-c2nc3scc(-c4ccc(Br)cc4)n3n2)cc1", "target-or-system": "Staphylococcus aureus", "experimental-readout": "MIC", "reported-result": 128}
{"substance-smiles": "O=S(=O)(c1ccc(Cl)cc1)c1ccc(-c2nnc(S)[nH]2)cc1", "target-or-system": "Staphylococcus aureus", "experimental-readout": "MIC", "reported-result": 1020}
{"substance-smiles": "O=S(=O)(c1ccccc1)c1ccc(-c2nnc(S)[nH]2)cc1", "target-or-system": "Staphylococcus aureus", "experimental-readout": "MIC", "reported-result": 512}
{"substance-smiles": "O=C(CSc1nnc(-c2ccc(S(=O)(=O)c3ccccc3)cc2)[nH]1)c1ccccc1", "target-or-system": "Staphylococcus aureus", "experimental-readout": "MIC", "reported-result": 64}
{"substance-smiles": "O=C(CSc1nnc(-c2ccc(S(=O)(=O)c3ccc(Br)cc3)cc2)[nH]1)c1ccccc1", "target-or-system": "Staphylococcus aureus", "experimental-readout": "MIC", "reported-result": 128}

Hey, can you go through the list below and give me MIC for every item?
1. O=C(CSc1nnc(-c2ccc(S(=O)(=O)c3ccc(Br)cc3)cc2)[nH]1)c1ccc(Br)cc1
2. O=C(CSc1nnc(-c2ccc(S(=O)(=O)c3ccc(Cl)cc3)cc2)[nH]1)c1ccccc1

a:
1: 128; 2: 64

q: Which MIC is reported for this compound? O=S(=O)(c1ccc(Cl)cc1)c1ccc(-c2nc3scc(-c4ccc(Br)cc4)n3n2)cc1
a: 512

----------
System: Pseudomonas aeruginosa
test-description: Antimicrobial activity against Pseudomonas aeruginosa ATCC 9027 after 18 to 24 hrs by liquid broth method
Type: functional
For each entry below, report its MIC value.
Please provide the amount together with its unit, number first.

Before answering, review these 2 worked examples.
{"substance-smiles": "O=S(=O)(c1ccc(Cl)cc1)c1ccc(-c2nnc(S)[nH]2)cc1", "MIC": "1020 µg/mL"}
{"substance-smiles": "O=S(=O)(c1ccccc1)c1ccc(-c2nc3scc(-c4ccc(Br)cc4)n3n2)cc1", "MIC": "128 µg/mL"}

q: Entry O=S(=O)(c1ccc(Br)cc1)c1ccc(-c2nnc(S)[nH]2)cc1 : reported MIC = ?
a: 128 µg/mL

----------
Can you tell me MIC for the items I'm about to list?
System: Staphylococcus aureus
test-description: Antimicrobial activity against Staphylococcus aureus ATCC 12600 after 18 to 24 hrs by liquid broth method
Format: functional
Answers without a unit are incomplete; give the number and then its unit.

Worked cases, MIC given:
{"compound": "O=S(=O)(c1ccccc1)c1ccc(-c2nc3scc(-c4ccc(Br)cc4)n3n2)cc1", "MIC": "128 µg/mL"}
{"compound": "O=C(CSc1nnc(-c2ccc(S(=O)(=O)c3ccc(Cl)cc3)cc2)[nH]1)c1ccc(Br)cc1", "MIC": "64 µg/mL"}
{"compound": "O=S(=O)(c1ccc(Br)cc1)c1ccc(-c2nc3scc(-c4ccccc4)n3n2)cc1", "MIC": "128 µg/mL"}
{"compound": "CC1(C)S[C@@H]2[C@H](NC(=O)[C@H](N)c3ccccc3)C(=O)N2[C@H]1C(=O)O [AMPICILLIN]", "MIC": "0.5 µg/mL"}
{"compound": "O=S(=O)(c1ccc(Br)cc1)c1ccc(-c2nnc(S)[nH]2)cc1", "MIC": "64 µg/mL"}

Can you give me MIC for all of these, one by one?
1. CN(C)[C@@H]1C(O)=C(C(N)=O)C(=O)[C@@]2(O)C(O)=C3C(=O)c4c(O)cccc4[C@@](C)(O)[C@H]3C[C@@H]12 [TETRACYCLINE]
2. O=S(=O)(c1ccccc1)c1ccc(-c2nc3scc(-c4ccccc4)n3n2)cc1
3. O=C(CSc1nnc(-c2ccc(S(=O)(=O)c3ccccc3)cc2)[nH]1)c1ccc(Br)cc1

a:
["0.19 µg/mL", "128 µg/mL", "512 µg/mL"]

----------
System: Pseudomonas aeruginosa
test-description: Antimicrobial activity against Pseudomonas aeruginosa ATCC 9027 after 18 to 24 hrs by liquid broth method
Assay type: functional
experimental-readout: MIC (µg/mL)
One number for each entry, in µg/mL.

Past entries and their recorded results:
{"substance-smiles": "CN(C)[C@@H]1C(O)=C(C(N)=O)C(=O)[C@@]2(O)C(O)=C3C(=O)c4c(O)cccc4[C@@](C)(O)[C@H]3C[C@@H]12", "MIC (µg/mL)": 12}
{"substance-smiles": "O=C(CSc1nnc(-c2ccc(S(=O)(=O)c3ccc(Br)cc3)cc2)[nH]1)c1ccccc1", "MIC (µg/mL)": 128}
{"substance-smiles": "O=C(CSc1nnc(-c2ccc(S(=O)(=O)c3ccccc3)cc2)[nH]1)c1ccccc1", "MIC (µg/mL)": 128}

List MIC for every entry below, keeping the order given.
1. O=S(=O)(c1ccc(Br)cc1)c1ccc(-c2nc3scc(-c4ccccc4)n3n2)cc1
2. O=C(CSc1nnc(-c2ccc(S(=O)(=O)c3ccc(Cl)cc3)cc2)[nH]1)c1ccccc1
3. O=C(CSc1nnc(-c2ccc(S(=O)(=O)c3ccccc3)cc2)[nH]1)c1ccc(Br)cc1

a:
[128, 64, 512]

q: Name the reported MIC value associated with the compound O=S(=O)(c1ccccc1)c1ccc(-c2nc3scc(-c4ccccc4)n3n2)cc1
a: 128

----------
System: Enterococcus faecalis
test-description: Antimicrobial activity against Enterococcus faecalis ATCC 19433 after 18 to 24 hrs by liquid broth method
Format: functional
Would you kindly list MIC for each of these compounds?

{"substance-smiles": "O=S(=O)(c1ccccc1)c1ccc(-c2nc3scc(-c4ccccc4)n3n2)cc1", "experimental-readout": "MIC", "reported-result": "512 mg/L"}

Each of the following entries comes with a recorded value; kindly state MIC for each.
1. O=S(=O)(c1ccccc1)c1ccc(-c2nc3scc(-c4ccc(Br)cc4)n3n2)cc1
2. O=S(=O)(c1ccc(Cl)cc1)c1ccc(-c2nc3scc(-c4ccccc4)n3n2)cc1
3. O=C(CSc1nnc(-c2ccc(S(=O)(=O)c3ccc(Cl)cc3)cc2)[nH]1)c1ccc(Br)cc1

a:
1: 256 mg/L; 2: > 1020 mg/L; 3: 256 mg/L
